- SUBJECT OF TEST: Tel-TrkB (Homo sapiens)
- Construct: dimerization domain of Tel (ETV6) transcription factor (fusion partner, human ETV6 P41212); expressed in transfected cells; host or cells: luciferase expressing Ba/F3 murine hematopoietic progenitor cells; the other entry of the earlier key: ETV6 (P41212, Transcription factor ETV6)
- Sequence (Q16620 538-822 limits assumed): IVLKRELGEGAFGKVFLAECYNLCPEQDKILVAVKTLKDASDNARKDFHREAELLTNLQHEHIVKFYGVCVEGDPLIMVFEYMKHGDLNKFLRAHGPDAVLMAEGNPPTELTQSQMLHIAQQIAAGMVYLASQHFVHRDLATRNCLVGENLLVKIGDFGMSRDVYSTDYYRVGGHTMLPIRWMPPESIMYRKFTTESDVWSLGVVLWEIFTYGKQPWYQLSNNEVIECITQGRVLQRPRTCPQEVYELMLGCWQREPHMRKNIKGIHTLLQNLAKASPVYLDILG
- METHOD NOTES: Inhibition of proliferation of Ba/F3 cells expressing Tel-TrkB (BaF3/Tel-TrkB)
- Format: cell-based
- DETAILS: Ba/F3 Tel-TrkB cells; read-out: Ba/F3 Tel-TrkB IC 50
IC50 less than 8 nM is 1 (yes); IC50 greater than or equal to 8 nM is 0 (no).

O=C(C1CCN(c2cccc(-c3cnc4ccc(N5CCOCC5c5cccc(F)c5)nn34)n2)CC1)N1CCC(O)C1 (stereo not shown)	1 (yes)
Fc1cccc(C2CCCN2c2ccc3ncc(-c4cccc(-c5cnc(N6CCOCC6)nc5)n4)n3n2)c1 (stereo not shown)	0 (no)
CC(=O)N[C@@H]1CCN(c2cccc(-c3cnc4ccc(N5CCCC5c5cccc(F)c5)nn34)n2)C1 (stereo partly shown)	1 (yes)

Ask | API: query returns whether the compound falls strictly under 8 nM in IC50. Query: CN(C)c1ccc(-c2cnc3ccc(N4CCCC4c4cc(F)ccc4F)nn23)cc1C#N (stereo not shown)
Reply | 0 (no)

Ask | API: query returns whether the compound falls strictly under 8 nM in IC50. Query: "OCCN1CCN(c2nccc(-c3cccc(-c4cnc5ccc(N6CCC[C@@H]6c6cccc(F)c6)nn45)n3)n2)CC1"
Reply | 0 (no)

Ask | API: query returns whether the compound falls strictly under 8 nM in IC50. Query: Fc1cccc(C2COCCN2c2ccc3ncc(-c4cccc(N5CC6CC5CN6)n4)n3n2)c1 (stereo not shown)
Reply | 0 (no)

Ask | API: query returns whether the compound falls strictly under 8 nM in IC50. Query: O=C(NCCO)C1CCN(c2cccc(-c3cnc4ccc(N5CCOCC5c5cccc(F)c5)nn34)n2)CC1 (stereo not shown)
Reply | 1 (yes)

====

Quick list: IC50 per entry.
- SUBJECT OF TEST: Tel-TrkA (Homo sapiens)
- Construct: dimerization domain of Tel (ETV6) transcription factor (fusion partner, human ETV6 P41212); expressed in transfected cells; host or cells: luciferase expressing Ba/F3 murine hematopoietic progenitor cells; the other entry of the earlier key: ETV6 (P41212, Transcription factor ETV6)
- METHOD NOTES: Inhibition of proliferation of Ba/F3 cells expressing Tel-TrkA (BaF3/Tel-TrkA, luciferase/Bright Glo readout)
- Format: cell-based
- DETAILS: read-out: Ba/F3 Tel-TrkA IC 50
Give the number; nM is assumed, so skip it.

Observe how each entry below is paired with its result.
N#Cc1cc(-c2cnc3ccc(N4CCCC4c4cc(F)ccc4F)nn23)ccc1N1CCOCC1 (stereo not drawn)	26
CC(F)C(=O)N(C)C1CCN(c2cccc(-c3cnc4ccc(N5CCCC5c5cccc(F)c5)nn34)n2)C1 (stereo not drawn)	13

Read the next record carefully.
Ask | Please give measured IC50 of the following entry: CN(C)C(=O)CN1CCN(c2ccc(-c3cnc4ccc(N5CCOCC5c5cccc(F)c5)nn34)cc2C#N)CC1 (stereo not drawn)
Reply | 1.6

====

- SUBJECT OF TEST: Tel-TrkA (Homo sapiens, UniProt P04629)
- Construct: dimerization domain of Tel (ETV6) transcription factor (fusion partner, human ETV6 P41212); expressed in transfected cells; host or cells: luciferase expressing Ba/F3 murine hematopoietic progenitor cells; the other entry of the earlier key: ETV6 (P41212, Transcription factor ETV6)
- Sequence (P04629 510-796 limits assumed): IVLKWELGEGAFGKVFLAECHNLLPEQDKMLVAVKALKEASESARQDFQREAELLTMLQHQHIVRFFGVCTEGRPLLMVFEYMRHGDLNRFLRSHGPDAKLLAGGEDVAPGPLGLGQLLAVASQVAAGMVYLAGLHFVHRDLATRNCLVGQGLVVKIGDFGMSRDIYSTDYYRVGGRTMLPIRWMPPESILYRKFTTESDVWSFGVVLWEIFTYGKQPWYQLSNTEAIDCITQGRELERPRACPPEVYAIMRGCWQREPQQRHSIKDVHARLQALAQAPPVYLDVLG
- METHOD NOTES: Inhibition of proliferation of Ba/F3 cells expressing Tel-TrkA (BaF3/Tel-TrkA, luciferase/Bright Glo readout)
- Type: cell-based
- DETAILS: read-out: Ba/F3 Tel-TrkA IC 50
- Experimental: Test compounds were dissolved in DMSO (10 mM) and transferred into 1.4 mL flat bottom or V-shaped Matrix tubes carrying a unique 2D matrix chip by individual compound hubs. […] The cell line used is the luciferase expressing Ba/F3 murine hematopoietic progenitor cell line transformed with human Tel-TrkA, Tel-TrkB or Tel-TrkC cDNAs (Ba/F3 EN A/B/C). […] The emited luminiscence is quantified using the ACQUEST™ luminescence system (Molecular Devices). […]
Quick list: IC50 per entry.
The reply should consist of the numeric value with the unit placed after it.

Observe how each entry below is paired with its result.
COc1ncc(-c2cnc3ccc(N4CCCC4c4cccc(F)c4)nn23)s1 (stereo not shown)	140 nM
CC(=O)N[C@@H]1CCN(c2cccc(-c3cnc4ccc(N5CCCC5c5cccc(F)c5)nn34)n2)C1 (stereo partly shown)	3 nM
CNC(=O)OC1CCN(c2cccc(-c3cnc4ccc(N5CCC[C@@H]5c5cccc(F)c5)nn34)n2)CC1	64 nM

Ask | Quote IC50 with test system Tel-TrkA (Homo sapiens, UniProt P04629) for N#Cc1cccc(-n2cnc3ccc(N4CCCC4c4cccc(F)c4)nc32)c1 (stereo not shown)
Reply | 210 nM
